Tested on: human PKK mRNA
Test: Dose-dependent antisense inhibition of human PKK in HepaRG cells, 0.11-3.00 uM (Example 6)
Type: cell-based
Conditions: electroporation, 1.00 μM, approx. 16 hours, relative to untreated control cells
Strand notation (5' to 3'): a small letter for the sugar, then the base; units joined by * are phosphorothioate-linked, units joined directly phosphodiester-linked; [ ] holds rarer units or linkages, { } end groups; capitals alone tell only the bases. e = 2'-O-(2-methoxyethyl) (MOE); k = constrained ethyl (cEt); [5mC] = 5-methylcytosine; d = 2'-deoxy (DNA)
# Lookup of reported percent inhibition of PKK mRNA, 1.00 μM keyed by entry
Write it as a number; the unit % goes unstated.

For orientation, consider the following solved cases.
substance="547922 (eT*eG*kG*dA*dG*dT*dG*dA*dG*dA*dA*d[5mC]*d[5mC]*k[5mC]*kT*eG; antisense) [compound 547922]" tested_on="human PKK mRNA" metric="percent inhibition of PKK mRNA, 1.00 μM" assay_result=81
substance="548409 (antisense eG*eT*kA*dT*d[5mC]*dA*d[5mC]*dT*dG*dT*dA*d[5mC]*dT*kA*kG*eT) [compound 548409]" tested_on="human PKK mRNA" metric="percent inhibition of PKK mRNA, 1.00 μM" assay_result=90
substance="548410 (antisense eA*eG*kT*dA*dT*d[5mC]*dA*d[5mC]*dT*dG*dT*dA*d[5mC]*kT*kA*eG) [compound 548410]" tested_on="human PKK mRNA" metric="percent inhibition of PKK mRNA, 1.00 μM" assay_result=85
substance="548070 (e[5mC]*e[5mC]*k[5mC]*dA*dA*d[5mC]*dA*dG*dT*dT*dG*dG*dT*kA*kT*eA; antisense) [compound 548070]" tested_on="human PKK mRNA" metric="percent inhibition of PKK mRNA, 1.00 μM" assay_result=48
substance="548655 (antisense e[5mC]*e[5mC]*k[5mC]*dG*dA*dG*dG*dT*d[5mC]*dA*d[5mC]*dA*dT*kA*kA*eT) [compound 548655]" tested_on="human PKK mRNA" metric="percent inhibition of PKK mRNA, 1.00 μM" assay_result=8
substance="547835 (e[5mC]*e[5mC]*kA*dG*dA*dA*dA*d[5mC]*dT*dG*d[5mC]*dA*d[5mC]*k[5mC]*kT*eG; antisense) [compound 547835]" tested_on="human PKK mRNA" metric="percent inhibition of PKK mRNA, 1.00 μM" assay_result=53
substance="547851 (antisense eT*eA*kA*dA*dT*dG*dT*d[5mC]*dT*d[5mC]*dG*dA*dT*kG*kG*e[5mC]) [compound 547851]" tested_on="human PKK mRNA" metric="percent inhibition of PKK mRNA, 1.00 μM" assay_result=83
substance="548061 (eG*e[5mC]*kT*dT*dG*dT*dG*dT*d[5mC]*dA*d[5mC]*d[5mC]*dT*kT*kT*eG; antisense) [compound 548061]" tested_on="human PKK mRNA" metric="percent inhibition of PKK mRNA, 1.00 μM" assay_result=59

Data point: 547769 (antisense eT*eT*kG*dG*dA*dG*dG*dT*dG*dA*dG*dT*d[5mC]*kT*k[5mC]*eT) [compound 547769] ; percent inhibition of PKK mRNA, 1.00 μM = 80

Lab note: 548109 (antisense eG*e[5mC]*kA*dT*d[5mC]*dT*dG*dA*dG*d[5mC]*dT*dT*dT*kT*k[5mC]*e[5mC]) [compound 548109] gave percent inhibition of PKK mRNA, 1.00 μM of 79

// 547843 (antisense e[5mC]*eA*k[5mC]*dT*dT*dA*dT*dT*dT*dG*dA*dT*dG*kA*k[5mC]*e[5mC]) [compound 547843] : percent inhibition of PKK mRNA, 1.00 μM value = 80

Record 548197 (eT*eG*k[5mC]*dT*dT*dG*dG*d[5mC]*dT*dT*d[5mC]*dA*dA*kT*kA*eT; antisense) [compound 548197] , field percent inhibition of PKK mRNA, 1.00 μM: 51

The measured percent inhibition of PKK mRNA, 1.00 μM associated with 548247 (antisense e[5mC]*eG*kA*dT*dT*dT*dT*d[5mC]*d[5mC]*dA*dT*dG*d[5mC]*kA*kT*eA) [compound 548247] reads 62

Summary for this substance, 548180 (eT*e[5mC]*kA*dT*dG*dG*dA*dG*dA*dT*d[5mC]*dT*d[5mC]*kA*kG*eT; antisense) [compound 548180] : percent inhibition of PKK mRNA, 1.00 μM is 71
